Please provide measured pEC50 for the entries that follow.
Assayed System: human activated kallikrein enzyme (Homo sapiens)
Assay Text: Inhibition of human activated kallikrein enzyme, fluorogenic peptide substrate assay (500 pM enzyme format)
Measurement Conditions: 500 pM activated kallikrein, 300 μM PFR-AMC substrate, 30 min preincubation, 10 min reaction, room temperature; read-out: Primary Dose Response Assay: Average EC50
pEC50: −log10 of the molar value. Structures can show the parent of a compound that is named as a salt.

Inquiry: Which pEC50 value belongs to O[C@H]1C[C@H](c2cn3cc(C4CC4)ccc3n2)N(c2cc(NCc3cc4c(Cl)c[nH]c4cc3F)ncn2)C1 ?
Reply text: 6.30 to 7.30

Inquiry: Looking for the measured pEC50 of Cc1cc(C(=N)N)cc(C)c1CNc1cc(NCc2cn3cc(C4CC4)ccc3n2)cnn1 , can you help?
Reply text: ≥ 8.30

Inquiry: Give its pEC50 value. Item: Cc1cc(C(=N)N)cc(C)c1CNc1cc(NCc2cn3cc(C4CC4)ccc3n2)ncn1
Reply text: ≥ 8.30

Inquiry: Give the measured pEC50 of O=C(Cc1ncn2ccc(Cl)cc12)Nc1ccnc(NCc2cn3cc(C4CC4)ccc3n2)n1 .
Reply text: ≥ 8.30

Inquiry: Could you tell me which pEC50 is on file for COc1ccc(-n2cnnn2)c(CNc2cc(C(F)(F)c3cn4cc(C5CC5)ccc4n3)ncn2)c1F ?
Reply text: 5.05 to 6.30

Inquiry: Need pEC50 of CC(Oc1cccc(Cl)c1)C(=O)Nc1cc(NCc2cn3cc(C4CC4)ccc3n2)ncn1 (stereo not drawn) [Example 49, formic acid salt] , thanks.
Reply text: 5.05 to 6.30

Inquiry: Which pEC50 value belongs to O=C(Cc1cc(Cl)ccc1Br)Nc1cc(NCc2cn3cc(C4CC4)ccc3n2)ncn1 ?
Reply text: < 5.05

Inquiry: Returns the measured pEC50 for the input molecule. Input: O=C(Cc1ncn2ccc(Cl)cc12)Nc1cc(OCc2cn3cc(C4CC4)ccc3n2)ncn1
Reply text: 7.30 to 8.30

Inquiry: Form field: reported pEC50 of CCOC(=O)Cc1cc(C2CC2)cn2cc(COc3cc(NCc4c(C)cc(C(=N)N)cc4C)ncn3)nc12
Reply text: ≥ 8.30

Inquiry: Quick check: pEC50 of Cc1cc(C(=N)NO)cc(C)c1CNc1cc(OCc2cn3cc(C4CC4)ccc3n2)nc(C(=O)O)n1 ?
Reply text: 7.30 to 8.30

Inquiry: Would you kindly share the measured pEC50 for Clc1cccc([C@H]2C[C@@H]2CNc2cc(NCc3cn4cc(C5CC5)ccc4n3)ncn2)c1 ?
Reply text: 5.05 to 6.30

Inquiry: Name the reported pEC50 value associated with the molecule Cc1cc(C(=N)N)cc(C)c1CNc1cc(OCc2cn3cc(C4CC4)ccc3n2)nc(CC(C)(C)C(=O)O)n1
Reply text: ≥ 8.30

Inquiry: Which value of pEC50 has been reported for O=C(Cc1ncn2ccc(Cl)cc12)Nc1cc(NCc2cn3cc(C4CC4)cc(N4CCCC4=O)c3n2)ncn1 in the records?
Reply text: ≥ 8.30

Inquiry: Fill in: pEC50 of CCOC(=O)CCc1nc(NCc2c(C)cc(C(=N)N)cc2C)cc(OCc2cn3cc(C4CC4)ccc3n2)n1 [Example 70, formic acid salt] is ___
Reply text: ≥ 8.30

Inquiry: Entry under review: CCOC(=O)c1nc(NCc2c(C)cc(C(=N)NO)cc2C)cc(OCc2cn3cc(C4CC4)ccc3n2)n1 . Reported pEC50?
Reply text: 6.30 to 7.30

* * *

For each of the compounds below, state its EC50.
Assayed System: human activated kallikrein enzyme (Homo sapiens, UniProt P03952)
Sequence (P03952 391-638 limits assumed): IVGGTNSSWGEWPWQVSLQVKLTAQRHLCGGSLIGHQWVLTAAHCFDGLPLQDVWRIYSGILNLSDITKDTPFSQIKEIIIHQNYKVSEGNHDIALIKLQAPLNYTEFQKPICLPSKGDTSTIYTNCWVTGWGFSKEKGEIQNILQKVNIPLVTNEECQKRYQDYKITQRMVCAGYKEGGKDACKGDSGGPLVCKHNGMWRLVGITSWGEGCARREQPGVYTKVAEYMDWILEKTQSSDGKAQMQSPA
Sequence (P03952 20-390 partner limits assumed): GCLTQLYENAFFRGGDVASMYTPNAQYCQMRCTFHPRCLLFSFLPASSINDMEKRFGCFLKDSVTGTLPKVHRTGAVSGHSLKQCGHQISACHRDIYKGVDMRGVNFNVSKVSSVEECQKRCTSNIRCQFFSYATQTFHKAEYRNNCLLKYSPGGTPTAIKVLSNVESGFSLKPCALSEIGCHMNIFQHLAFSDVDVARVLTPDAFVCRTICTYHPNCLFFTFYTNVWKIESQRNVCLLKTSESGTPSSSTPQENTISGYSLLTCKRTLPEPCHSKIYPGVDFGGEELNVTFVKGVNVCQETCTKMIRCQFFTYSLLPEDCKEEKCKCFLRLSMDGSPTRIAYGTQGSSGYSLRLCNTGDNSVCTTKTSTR
Assay Text: Inhibition of human activated kallikrein enzyme, fluorogenic peptide substrate assay (500 pM enzyme format)
Measurement Conditions: 500 pM activated kallikrein, 300 μM PFR-AMC substrate, 30 min preincubation, 10 min reaction, room temperature; read-out: Primary Dose Response Assay: Average EC50

Inquiry: Return reported EC50; argument: CCOC(=O)c1nc(NCc2cn3cc(C4CC4)ccc3n2)cc(NC(=O)Cc2ncn3ccc(Cl)cc23)n1 [Example 20]
Reply text: ≤ 5 nM

Inquiry: GET /values?readout=EC50&item= O=C(Cc1n[nH]c2ccc(Cl)cc12)Nc1cc(NCc2cn3cc(C4CC4)ccc3n2)ccn1 [Example 26]
Reply text: ≤ 5 nM

Inquiry: For the compound shown here, Cc1cc(N)nc(C)c1CNc1cc(N2C[C@@H](O)C[C@@H]2c2cn3cc(C4CC4)ccc3n2)ncn1 [Example 135] , give the reported EC50.
Reply text: ≤ 5 nM

Inquiry: May I ask what EC50 has been recorded for O=C(Cc1ncn2ccc(Cl)cc12)Nc1cncnc1NCc1cn2cc(C3CC3)ccc2n1 [Example 42] ?
Reply text: 50 to 500 nM

Inquiry: Given the compound CCOC(=O)NC(=N)c1cc(C)c(CNc2cc(OCc3cn4cc(C5CC5)ccc4n3)nc(C(=O)OCC)n2)c(C)c1 [Example 86] , what is its reported EC50?
Reply text: 50 to 500 nM

Inquiry: Which value of EC50 has been reported for CC(O)c1nc(NCc2cn3cc(C4CC4)ccc3n2)cc(NC(=O)Cc2ncn3ccc(Cl)cc23)n1 (stereo not shown) [Example 103] in the records?
Reply text: ≤ 5 nM

Inquiry: Given the compound O=C(Cc1ncn2ccc(Cl)cc12)Nc1cc(NCc2cn3cc(C4CC4)cc(CO)c3n2)ccn1 [Example 52] , what is its reported EC50?
Reply text: ≤ 5 nM

* * *

Would you kindly list EC50 for each of these molecules?
Assayed System: human activated kallikrein enzyme (Homo sapiens, UniProt P03952)
Assay Text: Inhibition of human activated kallikrein enzyme, fluorogenic peptide substrate assay (500 pM enzyme format)
Measurement Conditions: 500 pM activated kallikrein, 300 μM PFR-AMC substrate, 30 min preincubation, 10 min reaction, room temperature; read-out: Primary Dose Response Assay: Average EC50
Counter-ions that a name gives are not always drawn.

Inquiry: Entry Nc1nccc2c1CCC2Nc1cc(NCc2cn3cc(C4CC4)ccc3n2)ncn1 (stereo not shown) , system human activated kallikrein enzyme (Homo sapiens, UniProt P03952): what EC50 was measured?
Reply text: 5 to 50 nM

Inquiry: Give the reported EC50 for O=C(Cn1c(=O)oc2ccc(Cl)cc21)Nc1cc(NCc2cn3cc(C4CC4)ccc3n2)ccn1 (system: human activated kallikrein enzyme (Homo sapiens, UniProt P03952)).
Reply text: 500 to 9000 nM

Inquiry: Please state recorded EC50 (tested on human activated kallikrein enzyme (Homo sapiens, UniProt P03952)) of CCOC(=O)NC(=N)c1cc(C)c(CNc2cc(OCc3cn4cc(C5CC5)ccc4n3)nc(C(=O)O)n2)c(C)c1
Reply text: ≤ 5 nM

Inquiry: Give recorded EC50 with human activated kallikrein enzyme (Homo sapiens, UniProt P03952) for the following molecule: Cc1cc(C(=N)N)cc(C)c1CNc1cc(OCc2cn3cc(C4CC4)ccc3n2)nc(CCC(=O)O)n1 [Example 74, formic acid salt]
Reply text: ≤ 5 nM

* * *

Assayed System: human activated kallikrein enzyme (Homo sapiens)
Assay Text: Inhibition of human activated kallikrein enzyme, fluorogenic peptide substrate assay (500 pM enzyme format)
Measurement Conditions: 500 pM activated kallikrein, 300 μM PFR-AMC substrate, 30 min preincubation, 10 min reaction, room temperature; read-out: Primary Dose Response Assay: Average EC50
For each record, write down the corresponding EC50.

Inquiry: Would you mind telling me what EC50 value was observed for O=C(/C=C/c1cccc(Cl)c1)Nc1cc(NCc2cn3cc(C4CC4)ccc3n2)ncn1 ?
Reply text: 5 to 50 nM

Inquiry: GET /values?readout=EC50&item= COc1ccc(N)c(CC(=O)Nc2cc(NCc3cn4cc(C5CC5)ccc4n3)ncn2)c1F
Reply text: 500 to 9000 nM

Inquiry: Return reported EC50; argument: O=C(Cc1ncn2ccc(Cl)cc12)Nc1cc(C(O)c2cn3cc(C4CC4)ccc3n2)ncn1 (centres unmarked)
Reply text: ≤ 5 nM

Inquiry: Could you tell me which EC50 is on file for CCOC(=O)c1nc(NCc2c(C)cc(C(=N)N)cc2C)cc(OCc2cn3cc(C4CC4)ccc3n2)n1 ?
Reply text: ≤ 5 nM

Inquiry: Endpoint output: EC50 of O=C(Cc1cnc2[nH]cc(Cl)c2c1)Nc1cc(NCc2cn3cc(C4CC4)ccc3n2)ncn1 . Value?
Reply text: 50 to 500 nM

Inquiry: Find the recorded EC50 belonging to NC(=O)c1ccc(Cl)cc1CC(=O)Nc1cc(NCc2cn3cc(C4CC4)ccc3n2)ncn1 and report it.
Reply text: 500 to 9000 nM

Inquiry: Entry Cc1cc(N)nc(C)c1CNc1cc(NCc2cn3cc(C4CC4)ccc3n2)ncn1 has what EC50?
Reply text: ≤ 5 nM

Inquiry: Reported EC50, compound O=C(Cc1ncn2ccc(Cl)cc12)Nc1cc(NCc2cn3cc(C4CC4)ccc3n2)nc(C(F)(F)F)n1 : ____
Reply text: 5 to 50 nM

* * *

Assayed System: human activated kallikrein enzyme (Homo sapiens)
Assay Text: Inhibition of human activated kallikrein enzyme, fluorogenic peptide substrate assay (500 pM enzyme format)
Measurement Conditions: 500 pM activated kallikrein, 300 μM PFR-AMC substrate, 30 min preincubation, 10 min reaction, room temperature; read-out: Primary Dose Response Assay: Average EC50
pEC50: −log10 of the molar value.
Quantity Kind: pEC50

Inquiry: Would you kindly share the measured pEC50 for COc1ccc(=O)n(CC(=O)Nc2cc(NCc3cn4cc(C5CC5)ccc4n3)ncn2)c1 [Example 121] ?
Reply text: < 5.05

Inquiry: Would you kindly share the measured pEC50 for COc1ccc2oc(=O)n(CC(=O)Nc3cc(NCc4cn5cc(C6CC6)ccc5n4)ncn3)c2c1 [Example 122] ?
Reply text: < 5.05

Inquiry: Endpoint output: pEC50 of O=C(Nc1cc(NCc2cn3cc(C4CC4)ccc3n2)ccn1)c1ccc2ccc(Cl)cc2c1 [Example 118] . Value?
Reply text: 6.30 to 7.30

Inquiry: Look at this molecule and give its reported pEC50. O=C(Cn1cc(Cl)ccc1=O)Nc1cc(NCc2cn3cc(C4CC4)ccc3n2)ncn1 [Example 119]
Reply text: < 5.05

Inquiry: So what does the record say about pEC50 for Cc1cc(CN)cc(C)c1CNc1cc(OCc2cn3cc(C4CC4)ccc3n2)ncn1 [Example 108] ?
Reply text: ≥ 8.30

Inquiry: Data request, read-out pEC50, for CN1C(=O)CN(c2cc(C3CC3)cn3cc(CNc4cc(NC(=O)Cc5ncn6ncc(Cl)cc56)ncn4)nc23)C1=O [Example 141]
Reply text: ≥ 8.30

Inquiry: Report pEC50 for O=C(Cc1ncn2ccc(Cl)cc12)Nc1cncnc1NCc1cn2c(F)c(C3CC3)ccc2n1 [Example 43] please.
Reply text: 7.30 to 8.30

Inquiry: Dear colleague, I am looking for the recorded pEC50 of the following molecule: O=C(Cc1ncnc2ccc(Cl)cc12)Nc1cc(NCc2cn3cc(C4CC4)ccc3n2)ncn1 [Example 104]
Reply text: < 5.05
